# Target system: UniProtKB P42336
# Test description: PI3K lipid kinase activity on lipid micelles (ADP-Glo), p110α
# Format: biochemical
# Condition info: 10 μM ATP
Observed property: IC50 (µM)

Record excerpt, results attached:
O=c1cc(N2CCOCC2)[nH]c2c(-c3cn(-c4ccccc4)nn3)cccc12    0.73
O=C(O)CCCn1cc(-c2cccc3c(=O)cc(N4CCOCC4)[nH]c23)nn1 [CL55a]    0.1

1. O=c1cc(N2CCOCC2)[nH]c2c(-c3cn(-c4ccccc4O)nn3)cccc12
2. O=C(O)c1cccc(-n2cc(-c3cccc4c(=O)cc(N5CCOCC5)[nH]c34)nn2)c1 [CL55b]
Req: Which entry shows the lesser value of IC50 here, 1 or 2 ? To answer, give the label that identifies your chosen option.
Resp: 2
(2: 0.1 µM, 1: 0.26 µM)

----------
# Target system: p110α (Homo sapiens (Human), UniProt P42336)
# Sequence (P42336 whole entry): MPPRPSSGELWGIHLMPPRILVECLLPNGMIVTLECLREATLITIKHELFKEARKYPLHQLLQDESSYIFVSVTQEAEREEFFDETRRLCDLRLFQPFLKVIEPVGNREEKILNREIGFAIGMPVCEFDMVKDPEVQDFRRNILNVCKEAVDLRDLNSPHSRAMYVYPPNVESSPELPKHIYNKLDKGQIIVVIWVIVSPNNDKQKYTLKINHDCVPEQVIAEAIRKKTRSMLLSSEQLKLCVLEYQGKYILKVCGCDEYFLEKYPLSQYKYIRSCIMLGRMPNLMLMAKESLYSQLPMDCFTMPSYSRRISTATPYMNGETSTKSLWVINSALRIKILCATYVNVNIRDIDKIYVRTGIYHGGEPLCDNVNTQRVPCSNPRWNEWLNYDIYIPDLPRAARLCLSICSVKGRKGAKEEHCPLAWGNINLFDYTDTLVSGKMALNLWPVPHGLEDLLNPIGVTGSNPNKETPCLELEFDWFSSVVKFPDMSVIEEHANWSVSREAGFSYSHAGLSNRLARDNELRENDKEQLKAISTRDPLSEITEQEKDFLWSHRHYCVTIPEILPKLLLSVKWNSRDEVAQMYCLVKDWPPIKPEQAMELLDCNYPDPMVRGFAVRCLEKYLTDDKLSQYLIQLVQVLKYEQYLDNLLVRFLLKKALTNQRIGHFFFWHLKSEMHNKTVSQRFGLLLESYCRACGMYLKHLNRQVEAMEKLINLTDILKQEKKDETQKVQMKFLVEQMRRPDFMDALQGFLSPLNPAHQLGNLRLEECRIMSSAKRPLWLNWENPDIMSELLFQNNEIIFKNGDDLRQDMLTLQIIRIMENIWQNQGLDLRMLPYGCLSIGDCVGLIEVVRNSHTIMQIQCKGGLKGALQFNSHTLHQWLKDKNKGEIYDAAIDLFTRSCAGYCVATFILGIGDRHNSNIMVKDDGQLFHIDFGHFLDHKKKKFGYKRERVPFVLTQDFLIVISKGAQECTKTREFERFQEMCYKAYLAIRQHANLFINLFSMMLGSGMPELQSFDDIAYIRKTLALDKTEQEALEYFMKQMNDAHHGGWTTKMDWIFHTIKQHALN
# Sequence (P27986 whole entry partner): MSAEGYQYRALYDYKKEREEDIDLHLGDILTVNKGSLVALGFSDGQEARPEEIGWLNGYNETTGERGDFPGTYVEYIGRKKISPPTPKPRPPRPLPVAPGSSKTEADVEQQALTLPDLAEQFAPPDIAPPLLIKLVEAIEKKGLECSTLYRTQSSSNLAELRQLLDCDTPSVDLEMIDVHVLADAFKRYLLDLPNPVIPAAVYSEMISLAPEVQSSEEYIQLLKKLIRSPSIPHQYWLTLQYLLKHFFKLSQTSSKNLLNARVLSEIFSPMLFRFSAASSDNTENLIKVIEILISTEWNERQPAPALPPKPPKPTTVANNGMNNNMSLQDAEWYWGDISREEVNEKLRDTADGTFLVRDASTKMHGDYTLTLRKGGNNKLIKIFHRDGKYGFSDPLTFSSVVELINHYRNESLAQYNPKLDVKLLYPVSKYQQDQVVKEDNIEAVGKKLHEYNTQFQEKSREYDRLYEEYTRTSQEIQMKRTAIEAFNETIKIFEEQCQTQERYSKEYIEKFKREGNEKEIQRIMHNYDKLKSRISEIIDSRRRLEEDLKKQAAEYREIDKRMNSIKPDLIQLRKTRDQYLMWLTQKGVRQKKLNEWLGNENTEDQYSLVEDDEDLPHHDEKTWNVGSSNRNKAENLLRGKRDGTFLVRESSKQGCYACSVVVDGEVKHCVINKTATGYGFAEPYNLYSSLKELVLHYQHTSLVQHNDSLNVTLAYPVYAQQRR
# Test description: PI3K lipid kinase activity on lipid micelles (ADP-Glo), p110α
# Format: biochemical
# Condition info: 10 μM ATP
Observed property: IC50 (µM)

O=c1cc(N2CCOCC2)[nH]c2c(-c3cn(Cc4ccccc4)nn3)cccc12    0.26
N#CCc1ccc(-n2cc(-c3cccc4c(=O)cc(N5CCOCC5)[nH]c34)nn2)cc1    0.1
O=C(O)CCCCn1cc(-c2cccc3c(=O)cc(N4CCOCC4)[nH]c23)nn1 [CL64a]    0.1

a. O=C(O)c1ccc(-n2cc(-c3cccc4c(=O)cc(N5CCOCC5)[nH]c34)nn2)cc1 [CL29a]
b. O=C(NCc1ccccc1)c1cccc(Cn2cc(-c3cccc4c(=O)cc(N5CCOCC5)[nH]c34)nn2)c1 [CL129a]
c. O=C(O)c1cccc(Cn2cc(-c3cccc4c(=O)cc(N5CCOCC5)[nH]c34)nn2)c1 [CL27e]
Req: Sort entries by IC50 from minimum to maximum value. Field: ranking. Enter the labels in the order requested.
Resp: c, b, a
